# Target Under Test: complete β-kinase domain of the human insulin receptor (CKD) (Homo sapiens)
# Construct: The complete β-kinase domain of the human insulin receptor (CKD); made in house
# Sequence (P06213 1023-1298 limits assumed): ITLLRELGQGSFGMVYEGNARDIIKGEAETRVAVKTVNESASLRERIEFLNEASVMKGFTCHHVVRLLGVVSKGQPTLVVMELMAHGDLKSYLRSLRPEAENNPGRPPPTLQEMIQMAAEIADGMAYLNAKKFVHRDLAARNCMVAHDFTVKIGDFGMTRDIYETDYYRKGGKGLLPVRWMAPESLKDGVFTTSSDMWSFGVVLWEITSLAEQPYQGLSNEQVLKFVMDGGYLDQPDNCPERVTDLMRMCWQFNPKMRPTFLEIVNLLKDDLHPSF
# Measurement Description: 32P-CKD autophosphorylation assay
# Assay type: biochemical
# Test Settings: 10 min; compound at 10 μM; phosphorylation of CKD expressed as % of the vehicle level; read-out: Activity (% vs. control)
Label fulfilled for high-side activity at 10 µM (at or above 90%) and not fulfilled for low-side activity at 10 µM (below it).

Example cases with answers are listed next.
[[record]]
compound = "CC(=O)N(c1ccc(C(=O)O)cc1)c1ccc(C(=O)Nc2ccc(/C=C/c3ccc(F)cc3)cc2C(=O)O)cc1 [Compound 35]"
target_under_test = "complete β-kinase domain of the human insulin receptor (CKD) (Homo sapiens)"
label = "fulfilled"

[[record]]
compound = "COC(=O)c1ccc(N(C(C)=O)c2ccc(N(C(C)=O)c3ccc(/C=C/c4ccc(OC(C)(C)C)c(C(=O)O)c4)cc3)cc2)cc1 [Compound 49]"
target_under_test = "complete β-kinase domain of the human insulin receptor (CKD) (Homo sapiens)"
label = "not fulfilled"

[[record]]
compound = "O=C(O)Cc1ccc(/C=C/c2ccc(NC(=O)c3ccccc3C(=O)O)cc2)cc1 [Compound 24]"
target_under_test = "complete β-kinase domain of the human insulin receptor (CKD) (Homo sapiens)"
label = "fulfilled"

[[record]]
compound = "COC(=O)c1ccc(/C=C/c2ccc(NC(=O)c3ccc(N(C)C(=O)c4ccc(C(=O)OC)cc4)cc3)cc2)cc1 [Compound 44]"
target_under_test = "complete β-kinase domain of the human insulin receptor (CKD) (Homo sapiens)"
label = "fulfilled"

[[record]]
compound = "CN(C(=O)c1ccccc1)c1ccc(/C=C/c2ccccc2)cc1C(=O)O [Compound 25]"
target_under_test = "complete β-kinase domain of the human insulin receptor (CKD) (Homo sapiens)"
label = "not fulfilled"


Turning to the following compound.
input: Form field: activity at 10 µM at least 90%? Entry: COC(=O)c1ccc(C(=O)N(C)c2ccc(C(=O)Nc3ccc(/C=C/c4ccc(OC)cc4)cc3C(=O)OC)cc2)cc1 [Compound 29]
output: not fulfilled
